Data origin, for the record: patent US10723711B2

study.system: human recombinant Monoacylglycerol Lipase (Homo sapiens)
method.notes: MAGL inactivation, enzyme progress curves, kinact/KI
Assay type: biochemical
details: from enzyme progress curves, T = 0 min protocol; geometric mean of 2-4 determinations unless otherwise indicated
endpoint.name: MAGL kinact/KI

Req: What MAGL kinact/KI value was documented for this compound, O=C(O[C@H](CO)C(F)(F)F)N1CCC(Oc2ccc(C3CC3)cn2)CC1 ?
Resp: 5205 1/s per M

Continuing:
Req: What MAGL kinact/KI value was documented for this compound, CN(C1COC2(CCN(C(=O)O[C@H](CO)C(F)(F)F)CC2)C1)S(=O)(=O)c1cccc(F)c1 (single isomer, unassigned) [Example 109] ?
Resp: 34918 1/s per M

Req: Try this compound too: C#Cc1cccc(S(=O)(=O)N2CCOC3(CCN(C(=O)O[C@H](CO)C(F)(F)F)CC3)C2)c1
Resp: 26513 1/s per M

Req: Try this compound too: O=C(O[C@H](CO)C(F)(F)F)N1CCC2(CC1)CN(Cc1ccc(F)cc1)CCO2
Resp: 2591 1/s per M

Req: Try this compound too: O=C(O[C@H](CO)C(F)(F)F)N1CCC2(CC1)CC(Oc1ccccn1)CO2 (single isomer, unassigned)
Resp: 12483 1/s per M

Req: Try this compound too: O=C(O[C@H](CO)C(F)(F)F)N1CCC2(CC1)CN(S(=O)(=O)c1ccc(F)cc1)C(O)CO2 (mixture of isomers)
Resp: 85270 1/s per M

Req: Try this compound too: CCN([C@H]1COC2(CCN(C(=O)O[C@H](CO)C(F)(F)F)CC2)C1)S(=O)(=O)c1ccccc1
Resp: 215500 1/s per M

###

Each item that follows carries a reported IC50.
study.system: human recombinant Monoacylglycerol Lipase (Homo sapiens, UniProt Q99685)
Sequence (Q99685 whole entry): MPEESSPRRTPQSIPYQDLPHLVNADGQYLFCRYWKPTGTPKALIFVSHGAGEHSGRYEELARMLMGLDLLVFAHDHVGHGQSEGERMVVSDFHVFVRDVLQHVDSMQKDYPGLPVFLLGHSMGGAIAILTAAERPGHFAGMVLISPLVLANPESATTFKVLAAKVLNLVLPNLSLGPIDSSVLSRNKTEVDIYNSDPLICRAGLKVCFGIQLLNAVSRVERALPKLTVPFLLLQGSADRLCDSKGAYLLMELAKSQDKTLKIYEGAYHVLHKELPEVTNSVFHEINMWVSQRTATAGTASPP
method.notes: MAGL inhibition enzymatic assay, fluorogenic substrate 7-HCA, IC50 at T=0 min or after 30 minute incubation (T=30 min)
Type: biochemical
details: T = 0 min (substrate added immediately); geometric mean of 2-4 determinations unless otherwise indicated; read-out: MAGL (T = 0 min) IC50

Solved cases below.
Req: What IC50 value was documented for this compound, C#Cc1ccc(-n2ccc([C@H]3[C@@H]4CN(C(=O)O[C@@H](CO)C(F)(F)F)C[C@@H]43)n2)cc1 ?
Resp: > 2.75 µM

Req: Try this compound too: O=C(O[C@H](CO)C(F)(F)F)N1CCC2(CC1)CN(S(=O)(=O)CCCN1CCCC1)CCO2
Resp: > 3 µM

# next compound below
Req: What IC50 value was documented for this compound, CCOP(=O)(OCC)OC[C@@H](OC(=O)N1CCC2(CC1)CN(S(=O)(=O)c1ccc(F)cc1)CCO2)C(F)(F)F ?
Resp: > 3 µM

###

Each item that follows carries a reported MAGL kinact/KI.
study.system: human recombinant Monoacylglycerol Lipase (Homo sapiens)
method.notes: MAGL inactivation, enzyme progress curves, kinact/KI
Format: biochemical
details: from enzyme progress curves, T = 0 min protocol; geometric mean of 2-4 determinations unless otherwise indicated

Solved cases below.
Req: # get_value(readout= MAGL kinact/KI, system= human recombinant Monoacylglycerol Lipase (Homo sapiens)) for O=C(OC(C(F)(F)F)C(F)(F)CO)N1CCC2(CC1)CN(S(=O)(=O)c1ccc(F)cc1)CCO2 (single isomer, unassigned; ent-1) [Example 20]
Resp: 4611 1/s per M

Req: Try this compound too: CN([C@H]1COC2(CCN(C(=O)O[C@H](CO)C(F)(F)F)CC2)C1)S(=O)(=O)CC1CC1
Resp: 2856 1/s per M

# next compound below
Req: # get_value(readout= MAGL kinact/KI, system= human recombinant Monoacylglycerol Lipase (Homo sapiens)) for O=C(O[C@H](CO)C(F)(F)F)N1CCC2(CC1)CCN(S(=O)(=O)c1ccccc1)C2
Resp: 59993 1/s per M
